In this section, each of the molecules is paired with its reported Lipophilic Efficiency (logD).
system: parental HEK cells; assay: HEK parental Agonist Counterscreen Assay (non-transfected cells); type: cell-based; conditions: HEK Agonist Activity section

The examples below pair each entry with its known result.
- molecule: "COc1cc(C(=O)NNC(=O)CCc2c[nH]c3ccccc23)ccc1OC(C)C"
  Lipophilic Efficiency (logD): 1.78
- molecule: "CC(C)CCNC(=O)CN1CCN(Cc2ccc(F)cc2Cl)C1=O"
  Lipophilic Efficiency (logD): 2.51
- molecule: "N#Cc1ccc(OC(=O)COc2cccc3ccccc23)cc1"
  Lipophilic Efficiency (logD): 0.91
- molecule: "Cc1ccc(OCC(=O)NNC(=O)CN(C)S(=O)(=O)c2ccc(C)cc2)cc1"
  Lipophilic Efficiency (logD): 3.09

So what's the measured Lipophilic Efficiency (logD) for this one? CC1(c2ccc3c(c2)OCO3)NC(=O)N(CC(=O)NC2CCCC2)C1=O (centres unmarked)
3.84

Let us now turn to CCc1c(C2C(C(=O)OCc3ccccc3)=C(C)CC3=C2C(=O)CCC3)ccc(OC)c1OC (centres unmarked)
1.55

Let us now turn to COc1ccc(CCNC(=O)CC(=O)NCCc2ccc(OC)cc2)cc1
2.60

Let us now turn to O=C(Cn1ncn2cccc2c1=O)NCCc1ccc(Cl)cc1
3.41
